Experiment: Human HepG2 cell viability assay in 384 well format
Format: toxicity, cell-based
Design: dose 125 nL, time 70.5 hour; concentration not given beside the values
Settings: HepG2 cells, read-out: Inhibition
Exercise: state measured cytotoxicity at 70.5 h for each of the compounds provided.
Numbers only, in %.

{"compound": "CCc1oc(C(=O)NC(C)c2ncn[nH]2)cc1CN1CCCC1 (stereo unspecified)", "readout unit": "%", "experimental result": -10.5}

Batch request: cytotoxicity at 70.5 h for each of the following compounds.
1. COCc1cn(C[C@H]2C[C@@H]3CCN2C[C@@H]3C(=O)N2CCOCC2)nn1
2. CC(NC(=O)c1ccoc1)c1ccc2c(c1)CCC(=O)N2 (stereo unspecified)
3. CC(C)C(=O)N1CCCC2(CCCN2Cc2cccnc2)C1 (stereo unspecified)
4. O=C(Cc1cnc(-c2c(Cl)cccc2Cl)s1)N1CCC2(CC1)OCCO2
5. COc1cc(C)nc(N2CCN(C(=O)c3ccn(C)c(=O)c3)CC2)n1
6. CN(Cc1ccncn1)C(=O)CCc1[nH]nc2c1CCCC2
7. CCn1nc(C)cc1C(=O)NCc1cc(N(C)C)nc2ccccc12

stdout:
-3.96
-0.0886
1.65
-14.1
-0.122
-5.7
9.21

Batch request: cytotoxicity at 70.5 h for each of the following compounds.
1. Cc1nc(C)c(C(=O)N2CCCc3c(F)cccc32)o1
2. CCC1c2ccsc2CCN1C(=O)NCc1ccnc(N(C)C)c1 (stereo unspecified)
3. COc1nn(C)cc1C(=O)NCC(OC)c1ccccc1C (stereo unspecified)

stdout:
-5.01
-9.44
-3.02
